Assay: self-splicing fitness, log relative to wild type (ln ratio); higher = more splicing; Tetrahymena group I intron in knt gene, E. coli kanamycin selection, DiMSum; sequences stand for … in CUCUCU…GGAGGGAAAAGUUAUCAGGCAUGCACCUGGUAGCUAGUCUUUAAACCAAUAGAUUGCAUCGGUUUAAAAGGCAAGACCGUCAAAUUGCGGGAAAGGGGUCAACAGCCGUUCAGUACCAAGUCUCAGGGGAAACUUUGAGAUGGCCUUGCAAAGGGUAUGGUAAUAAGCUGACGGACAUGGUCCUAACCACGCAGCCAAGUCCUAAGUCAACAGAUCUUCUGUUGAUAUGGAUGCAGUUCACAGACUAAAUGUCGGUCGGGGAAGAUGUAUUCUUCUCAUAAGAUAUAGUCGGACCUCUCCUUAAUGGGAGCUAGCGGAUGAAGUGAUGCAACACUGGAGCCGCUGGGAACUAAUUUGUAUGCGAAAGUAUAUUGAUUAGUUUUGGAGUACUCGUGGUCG;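 note: selection with 25 µg/mL kanamycin versus none on LB agar overnight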
Settings: 30 °C
self-splicing fitness (ln) for assorted sequences
result.type: self-splicing fitness (ln)

{"columns": ["ordered.residues", "recorded.result"],
 "data": [
  ["GCGCAGCAAUAUUACGUCUC", -0.0041],
  ["AGGUAGCAAUAUUACGGAGA", -3.57],
  ["GUCGAGCAAUAUUACGGACG", -1.43],
  ["UUCUAGCAAUAUUACGCCCA", -1.55],
  ["CGCUAGCAAUAUUACGAUGU", -2.56],
  ["AGAAAGCAAUAUUACGGCAA", 0.0585],
  ["AGUAAGCAAUAUUACGUUAG", -1.71],
  ["CAAUAGCAAUAUUACGUUUC", -4.35],
  ["ACCGAGCAAUAUUACGGCCU", -0.622],
  ["CUCCAGCAAUAUUACGACAG", -1.4],
  ["CUAAAGCAAUAUUACGGAAA", -4.24],
  ["UGAAAGCAAUAUUACGGCAA", -0.125],
  ["GUCAAGCAAUAUUACGAAGG", -4.64],
  ["AGGGAGCAAUAUUACGGCGA", -3.35],
  ["AUGCAGCAAUAUUACGUUAU", -2.45],
  ["GUCAAGCAAUAUUACGCCCU", -0.585],
  ["UGACAGCAAUAUUACGAAAU", -3.12],
  ["AACUAGCAAUAUUACGGCGA", -0.842],
  ["CCGAAGCAAUAUUACGUAGC", -3],
  ["AUCCAGCAAUAUUACGACCC", -1.24],
  ["UAACAGCAAUAUUACGUGGC", -4.59],
  ["GGGGAGCAAUAUUACGUUUC", -2.65],
  ["AGUUAGCAAUAUUACGUCGG", -3.45],
  ["CCCGAGCAAUAUUACGCAUA", -3.7],
  ["UAAUAGCAAUAUUACGAAUC", -4.21],
  ["AGACAGCAAUAUUACGUAGC", -2.07],
  ["GUAUAGCAAUAUUACGUGUG", -3.28],
  ["UUAGAGCAAUAUUACGUCCA", -1.31],
  ["AUUAAGCAAUAUUACGCCCU", -0.0606],
  ["AAAUAGCAAUAUUACGAUCC", -0.358],
  ["UGCAAGCAAUAUUACGACAA", -0.541],
  ["ACAUAGCAAUAUUACGUAGG", -3.02],
  ["UUGGAGCAAUAUUACGGCAA", -0.805],
  ["GUUUAGCAAUAUUACGUGUC", -0.806]
]}
